# Test system: Trypanosoma brucei
# ASSAY METHOD TEXT: Trypanosoma brucei 72 hour study
# Assay type: functional, organism-based
# Set-up: scale not given: in the data most compounds retested in dose-response had high values
# SETUP CONDITIONS: 30 µM; 30.03 µM
Among all 66,000 compounds or so, about 960 (1.5%) showed an effect of 50% or more. For the sample, strong results were picked, then their nearest neighbours and some compounds at random.
Readings of Percent Effect for the listed compounds
Return type: number; implicit unit %.

Example compounds with recorded Percent Effect:
COMPOUND | OUTCOME MEASURE | READOUT VALUE
CN(Cc1coc(-c2ccccc2)n1)CC1CCCN1c1cccnn1 (stereo unspecified) | Percent Effect | -1.174
CC(O)(CNC(=O)c1cccnc1-n1cccn1)c1ccsc1 (stereo unspecified) | Percent Effect | -28.28
Cc1nc(CN2CCOC(CNc3cccnn3)C2)cs1 (stereo unspecified) | Percent Effect | -27.36
Cc1cc(N2CCC(O)(CN(C)C)C2)c2cc3c(cc2n1)OCO3 (stereo unspecified) | Percent Effect | 101.2
COCCN(C)C[C@@H]1CN(C(=O)c2ccc3c(c2)OCO3)C[C@@H]1CO | Percent Effect | -13.62

Proceeding to the next compound to report its Percent Effect.
Given the entry COC(=O)[C@H](CCSC)NC(=O)Cn1ccc2c(Cl)cccc21 , report its measured Percent Effect. -28.3
